Reference for the values: PubChem BioAssay (NCI)

The entries below are paired with their reported GI50.
Test system: UO-31 renal
Assay: NCI tumour cell line growth inhibition, 48 h

Consider the reported GI50 for these molecules:
COc1ccc(C(=O)N/N=C/c2ccc(O)cc2O)cc1Nc1ccnc(C(F)(F)F)c1; 2.64 µM
Cc1[nH]nc(C(=O)Nc2n[nH]c3ccccc23)c1[N+](=O)[O-]; > 100 µM
CN1c2ccccc2C(C)(C)C12CC(c1ccc(Cl)c(S(=O)(=O)N3CCCC3)c1)=NO2 (configuration not stated); > 100 µM

Value (GI50, UO-31 renal) for record C1C[OH+]CC[OH+]CC[OH+]CC[OH+]CC[OH+]CC[OH+]1.[Cl-].[Ta+5] = 5.02 µM

Value (GI50, UO-31 renal) for record CC12CCC(O)CC1CCC1C2CCC2(C)C(C3=CC(=O)OC3)CCC12 (configuration not stated) = > 100 µM

Value (GI50, UO-31 renal) for record COC1CCC(n2c([C@@H]3CCCC(=O)N3c3ccc(F)c(F)c3)nc3cc(-c4c(C)noc4C)ccc32)CC1 (some centres not stated) = 1.64 µM

Value (GI50, UO-31 renal) for record CC(C)c1ccc(O)c(=O)cc1 = 6.31 µM
